biological target: PXR (NR1I2) (Homo sapiens); experiment: Activation of human PXR assessed as induction of PXR activity at 10 uM relative to control; conditions: read-out: Activity
Sequence (O75469 whole entry): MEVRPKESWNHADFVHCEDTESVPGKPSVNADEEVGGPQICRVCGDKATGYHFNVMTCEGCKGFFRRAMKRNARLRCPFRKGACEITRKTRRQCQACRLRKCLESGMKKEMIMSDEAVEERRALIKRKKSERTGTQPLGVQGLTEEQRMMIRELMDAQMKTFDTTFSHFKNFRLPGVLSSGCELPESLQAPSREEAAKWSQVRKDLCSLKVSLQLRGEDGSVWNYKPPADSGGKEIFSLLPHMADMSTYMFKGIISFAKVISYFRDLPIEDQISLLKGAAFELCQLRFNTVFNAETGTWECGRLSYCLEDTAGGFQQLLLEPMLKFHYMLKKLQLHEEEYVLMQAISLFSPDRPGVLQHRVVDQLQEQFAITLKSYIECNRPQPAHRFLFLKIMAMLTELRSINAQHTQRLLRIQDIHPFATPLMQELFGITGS
reported.endpoint: activity at 10 µM (%)
The answer is to be given in %; state only the numeric part.

Some solved entries appear below for comparison.
O=C1N(C2CCCCC2)CC[C@]12C[C@H](F)CN2Cc1ccc(Cl)cc1 : 48
O=C1N(C2CCCCC2)CCC12CCCN2Cc1ccc(C(F)(F)F)cc1 (configuration not stated) : 80
CC(C1CCCCC1)N1C[C@H](O)C[C@]12CCN(C1CCCCC1)C2=O (some centres not stated) : 10
CCN1C[C@@H](O)C[C@]12CCN(C1CCCCC1)C2=O : 56

Param item = O=C1N(C2CCCCC2)CCC12C[C@@H](O)CN2Cc1ccc(Cl)cc1 (some centres not stated) ; retrieve measured activity at 10 µM. 18

Param item = CNC(=O)c1ccc(-c2ccc(CN3C[C@H](O)C[C@]34CCN(C3CCCCC3)C4=O)cc2)cn1 ; retrieve measured activity at 10 µM. -0.3
